The following molecules each carry a recorded IC50 for Dual specificity protein kinase CLK1 (Homo sapiens).
VALUE KIND: IC50 (nM)

[[record]]
chemical_string = "CC(=O)Nc1ccc(-c2cnc3[nH]cc(-c4ccc(O)cc4)c3c2)cc1"
tgt = "Dual specificity protein kinase CLK1 (Homo sapiens)"
censor_symbol = "="
reading = 35

[[record]]
chemical_string = "O=C(Nc1cccc(O)c1)c1c[nH]c2ncc(-c3ccc(O)cc3)cc12"
tgt = "Dual specificity protein kinase CLK1 (Homo sapiens)"
censor_symbol = ">"
reading = 1000

[[record]]
chemical_string = "Oc1ccc(-c2cnc3[nH]cc(-c4ccc(O)cc4)c3c2)cc1"
tgt = "Dual specificity protein kinase CLK1 (Homo sapiens)"
censor_symbol = "="
reading = 48

[[record]]
chemical_string = "Oc1ccc(-c2cnc3[nH]cc(-c4ccc(-c5nnn[nH]5)cc4)c3c2)cc1"
tgt = "Dual specificity protein kinase CLK1 (Homo sapiens)"
censor_symbol = "="
reading = 85

[[record]]
chemical_string = "Oc1ccc(-c2ccc3[nH]cc(-c4ccc(O)cc4)c3c2)cc1"
tgt = "Dual specificity protein kinase CLK1 (Homo sapiens)"
censor_symbol = ">"
reading = 1000

[[record]]
chemical_string = "Oc1ccc(-c2c[nH]c3ncc(-c4ccc(-c5nnn[nH]5)cc4)cc23)cc1"
tgt = "Dual specificity protein kinase CLK1 (Homo sapiens)"
censor_symbol = "="
reading = 70

[[record]]
chemical_string = "Nc1ccc(-c2cnc3[nH]cc(-c4ccc(O)cc4)c3c2)cc1"
tgt = "Dual specificity protein kinase CLK1 (Homo sapiens)"
censor_symbol = "="
reading = 34

[[record]]
chemical_string = "CS(=O)(=O)Nc1ccc(-c2cnc3[nH]cc(-c4ccc(O)cc4)c3c2)cc1"
tgt = "Dual specificity protein kinase CLK1 (Homo sapiens)"
censor_symbol = "="
reading = 44


---

Tested on: A 172
ASSAY REMARKS: Cytotoxicity against human A172 cells assessed as reduction in cell viability after 3 days by Alamar blue assay
Assay type: functional, cell-based
ASSAY SETUP: A 172, 72 h
pEC50: −log10 of the molar value.
# pEC50 per record follows
VALUE KIND: pEC50

[[record]]
chemical_string = "Nc1ccc(-c2cnc3[nH]cc(-c4ccc(O)cc4)c3c2)cc1"
reading = "5.34 to 5.80"

[[record]]
chemical_string = "CC(=O)Nc1ccc(-c2cnc3[nH]cc(-c4ccc(O)cc4)c3c2)cc1"
reading = "5.34 to 5.80"

[[record]]
chemical_string = "Nc1ccc(-c2c[nH]c3ncc(-c4ccc(O)cc4)cc23)cc1"
reading = "< 4.30"


---

TGT: Dual specificity tyrosine-phosphorylation-regulated kinase 4 (Homo sapiens)
Sequence (Q9NR20 whole entry): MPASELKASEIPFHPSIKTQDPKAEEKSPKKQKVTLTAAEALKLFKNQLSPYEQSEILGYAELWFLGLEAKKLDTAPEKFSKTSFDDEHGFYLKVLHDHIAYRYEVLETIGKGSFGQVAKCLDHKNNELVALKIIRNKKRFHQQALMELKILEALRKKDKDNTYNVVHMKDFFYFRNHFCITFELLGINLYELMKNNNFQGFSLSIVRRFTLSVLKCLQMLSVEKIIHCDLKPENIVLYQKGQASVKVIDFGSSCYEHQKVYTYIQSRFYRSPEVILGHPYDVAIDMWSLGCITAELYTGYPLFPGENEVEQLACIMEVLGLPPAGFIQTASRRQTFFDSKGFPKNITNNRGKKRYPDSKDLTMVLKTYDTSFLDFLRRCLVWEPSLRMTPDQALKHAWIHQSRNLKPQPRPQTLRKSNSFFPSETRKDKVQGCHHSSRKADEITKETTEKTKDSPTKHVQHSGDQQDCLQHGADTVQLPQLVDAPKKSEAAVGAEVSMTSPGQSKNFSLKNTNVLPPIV
ASSAY REMARKS: Inhibition of full-length recombinant human GST-tagged DYRK4 expressed in baculovirus infected insect cells using DYRKtide as substrate after 5 mins in presence of [gamma-33P]ATP by liquid scintillation counting
pIC50: −log10 of the molar value.
VALUE KIND: pIC50

[[record]]
compound = "COc1ccc2c(c1)[nH]c1c(C)nccc12 [HARMINE]"
reading = 4.10


---

TGT: Dual specificity tyrosine-phosphorylation-regulated kinase 2 (Homo sapiens, UniProt Q92630)
Sequence (Q92630 whole entry): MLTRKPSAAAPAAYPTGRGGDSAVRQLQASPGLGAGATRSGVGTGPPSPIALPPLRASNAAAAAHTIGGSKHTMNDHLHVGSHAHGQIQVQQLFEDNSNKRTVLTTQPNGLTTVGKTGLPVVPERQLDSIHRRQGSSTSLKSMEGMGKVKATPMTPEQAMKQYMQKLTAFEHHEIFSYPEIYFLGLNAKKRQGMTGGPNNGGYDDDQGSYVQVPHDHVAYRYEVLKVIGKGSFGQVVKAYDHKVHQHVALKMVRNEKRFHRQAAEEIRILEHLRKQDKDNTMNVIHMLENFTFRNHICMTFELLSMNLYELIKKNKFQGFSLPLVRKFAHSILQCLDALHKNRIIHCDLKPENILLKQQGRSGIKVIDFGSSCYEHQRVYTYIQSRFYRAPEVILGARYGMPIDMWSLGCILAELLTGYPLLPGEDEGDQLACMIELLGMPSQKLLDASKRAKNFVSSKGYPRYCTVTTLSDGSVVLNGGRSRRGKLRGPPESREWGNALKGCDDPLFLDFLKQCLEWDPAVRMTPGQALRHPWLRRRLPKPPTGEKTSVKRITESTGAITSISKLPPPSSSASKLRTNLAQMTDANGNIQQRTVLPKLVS
IC50: recorded values
VALUE KIND: IC50 (µM)

[[record]]
chemical_string = "Nc1ccc(-c2cnc3[nH]cc(-c4ccc(O)cc4)c3c2)cc1"
censor_symbol = "="
reading = 0.567

[[record]]
chemical_string = "NC(=O)Nc1ccc(-c2cnc3[nH]cc(-c4ccc(O)cc4)c3c2)cc1"
censor_symbol = "="
reading = 0.476

[[record]]
chemical_string = "CC(=O)Nc1ccc(-c2cnc3[nH]cc(-c4ccc(O)cc4)c3c2)cc1"
censor_symbol = "="
reading = 0.536

[[record]]
chemical_string = "CS(=O)(=O)Nc1ccc(-c2cnc3[nH]cc(-c4ccc(O)cc4)c3c2)cc1"
censor_symbol = "="
reading = 0.724

[[record]]
chemical_string = "Oc1ccc(-c2cnc3[nH]cc(-c4ccc(-c5nnn[nH]5)cc4)c3c2)cc1"
censor_symbol = "="
reading = 0.416

[[record]]
chemical_string = "Nc1ccc(-c2c[nH]c3ncc(-c4ccc(O)cc4)cc23)cc1"
censor_symbol = ">"
reading = 1

[[record]]
chemical_string = "O=C(Nc1cccc(O)c1)c1cnc2[nH]cc(-c3ccc(O)cc3)c2c1"
censor_symbol = "="
reading = 0.847

[[record]]
chemical_string = "Oc1ccc(-c2c[nH]c3ncc(-c4ccc(-c5nnn[nH]5)cc4)cc23)cc1"
censor_symbol = "="
reading = 0.408

[[record]]
chemical_string = "Oc1ccc(-c2ccc3[nH]nc(-c4ccc(O)cc4)c3c2)cc1"
censor_symbol = ">"
reading = 1

[[record]]
chemical_string = "Oc1ccc(-c2cnc3[nH]cc(-c4ccc5[nH]ccc5c4)c3c2)cc1"
censor_symbol = "="
reading = 0.571


---

TGT: Dual specificity tyrosine-phosphorylation-regulated kinase 1B (Homo sapiens)
Sequence (Q9Y463 whole entry): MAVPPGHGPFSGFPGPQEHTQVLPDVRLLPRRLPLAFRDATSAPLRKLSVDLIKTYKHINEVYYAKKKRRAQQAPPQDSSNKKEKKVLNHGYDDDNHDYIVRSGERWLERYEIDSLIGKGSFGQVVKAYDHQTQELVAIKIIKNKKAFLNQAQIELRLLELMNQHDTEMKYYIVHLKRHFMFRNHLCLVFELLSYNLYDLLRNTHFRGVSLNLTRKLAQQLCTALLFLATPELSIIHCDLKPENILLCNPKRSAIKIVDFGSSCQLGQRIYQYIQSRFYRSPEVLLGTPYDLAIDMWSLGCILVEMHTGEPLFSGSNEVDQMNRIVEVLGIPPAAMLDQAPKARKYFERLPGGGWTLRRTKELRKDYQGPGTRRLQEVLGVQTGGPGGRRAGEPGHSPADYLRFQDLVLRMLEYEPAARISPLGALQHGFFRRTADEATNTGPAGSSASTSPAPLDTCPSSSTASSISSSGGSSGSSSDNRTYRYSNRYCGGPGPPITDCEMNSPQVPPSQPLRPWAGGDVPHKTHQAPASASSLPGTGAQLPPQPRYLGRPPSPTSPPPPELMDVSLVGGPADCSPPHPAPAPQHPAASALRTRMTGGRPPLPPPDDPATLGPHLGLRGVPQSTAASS
Friendly reminder: IC50 below 0.1 µM is MET, at or above is NOT MET.

[[record]]
chemical_string = "O=C(Nc1cccc(O)c1)c1c[nH]c2ncc(-c3ccc(O)cc3)cc12"
tgt = "Dual specificity tyrosine-phosphorylation-regulated kinase 1B (Homo sapiens)"
answer_label = "NOT MET"

[[record]]
chemical_string = "NC(=O)Nc1ccc(-c2cnc3[nH]cc(-c4ccc(O)cc4)c3c2)cc1"
tgt = "Dual specificity tyrosine-phosphorylation-regulated kinase 1B (Homo sapiens)"
answer_label = "MET"

[[record]]
chemical_string = "O=C(Nc1ccc(O)cc1)c1cnc2[nH]cc(-c3ccc(O)cc3)c2c1"
tgt = "Dual specificity tyrosine-phosphorylation-regulated kinase 1B (Homo sapiens)"
answer_label = "NOT MET"

[[record]]
chemical_string = "Nc1ccc(-c2cnc3[nH]cc(-c4ccc(O)cc4)c3c2)cc1"
tgt = "Dual specificity tyrosine-phosphorylation-regulated kinase 1B (Homo sapiens)"
answer_label = "MET"

[[record]]
chemical_string = "CS(=O)(=O)Nc1ccc(-c2cnc3[nH]cc(-c4ccc(O)cc4)c3c2)cc1"
tgt = "Dual specificity tyrosine-phosphorylation-regulated kinase 1B (Homo sapiens)"
answer_label = "NOT MET"

[[record]]
chemical_string = "Oc1ccc(-c2cnc3[nH]cc(-c4ccc(-c5nnn[nH]5)cc4)c3c2)cc1"
tgt = "Dual specificity tyrosine-phosphorylation-regulated kinase 1B (Homo sapiens)"
answer_label = "NOT MET"

[[record]]
chemical_string = "O=C(Nc1cccc(O)c1)c1cnc2[nH]cc(-c3ccc(O)cc3)c2c1"
tgt = "Dual specificity tyrosine-phosphorylation-regulated kinase 1B (Homo sapiens)"
answer_label = "NOT MET"

[[record]]
chemical_string = "O=[N+]([O-])c1ccc(-c2cnc3[nH]cc(-c4ccc(O)cc4)c3c2)cc1"
tgt = "Dual specificity tyrosine-phosphorylation-regulated kinase 1B (Homo sapiens)"
answer_label = "NOT MET"

[[record]]
chemical_string = "Oc1ccc(-c2ccc3[nH]nc(-c4ccc(O)cc4)c3c2)cc1"
tgt = "Dual specificity tyrosine-phosphorylation-regulated kinase 1B (Homo sapiens)"
answer_label = "NOT MET"

[[record]]
chemical_string = "Oc1ccc(-c2cnc3[nH]cc(-c4ccc(O)cc4)c3c2)cc1"
tgt = "Dual specificity tyrosine-phosphorylation-regulated kinase 1B (Homo sapiens)"
answer_label = "MET"


---

TGT: Dual specificity tyrosine-phosphorylation-regulated kinase 1A (Homo sapiens, UniProt Q13627)
ASSAY REMARKS: Binding affinity to DYRK1A in human U251 […] preincubated for 1 hr followed by incubation at 54 degreeC for 3 mins by isothermal dose-response fingerprint assay
pIC50: −log10 of the molar value.
VALUE KIND: pIC50

[[record]]
chemical_string = "Nc1ccc(-c2cnc3[nH]cc(-c4ccc(O)cc4)c3c2)cc1"
value_kind = "pIC50"
reading = 6.15


---

pIC50: −log10 of the molar value.
What follows is a collection of pIC50 values obtained with Dual specificity tyrosine-phosphorylation-regulated kinase 1B (Homo sapiens).
VALUE KIND: pIC50

[[record]]
chemical_string = "CC(=O)Nc1ccc(-c2cnc3[nH]cc(-c4ccc(O)cc4)c3c2)cc1"
tgt = "Dual specificity tyrosine-phosphorylation-regulated kinase 1B (Homo sapiens)"
value_kind = "pIC50"
censor_symbol = "="
reading = 7.42

[[record]]
chemical_string = "Oc1ccc(-c2c[nH]c3ncc(-c4ccc(-c5nnn[nH]5)cc4)cc23)cc1"
tgt = "Dual specificity tyrosine-phosphorylation-regulated kinase 1B (Homo sapiens)"
value_kind = "pIC50"
censor_symbol = "="
reading = 7.38

[[record]]
chemical_string = "Oc1ccc(-c2cnc3[nH]cc(-c4ccc5[nH]ccc5c4)c3c2)cc1"
tgt = "Dual specificity tyrosine-phosphorylation-regulated kinase 1B (Homo sapiens)"
value_kind = "pIC50"
censor_symbol = "="
reading = 7.08

[[record]]
chemical_string = "Oc1ccc(-c2ccc3[nH]cc(-c4ccc(O)cc4)c3c2)cc1"
tgt = "Dual specificity tyrosine-phosphorylation-regulated kinase 1B (Homo sapiens)"
value_kind = "pIC50"
censor_symbol = "<"
reading = 6.00

[[record]]
chemical_string = "Nc1ccc(-c2c[nH]c3ncc(-c4ccc(O)cc4)cc23)cc1"
tgt = "Dual specificity tyrosine-phosphorylation-regulated kinase 1B (Homo sapiens)"
value_kind = "pIC50"
censor_symbol = "<"
reading = 6.00

[[record]]
chemical_string = "Oc1ccc(-c2c[nH]c3ncc(-c4ccc5[nH]ccc5c4)cc23)cc1"
tgt = "Dual specificity tyrosine-phosphorylation-regulated kinase 1B (Homo sapiens)"
value_kind = "pIC50"
censor_symbol = "="
reading = 7.29

[[record]]
chemical_string = "O=C(Nc1ccc(O)cc1)c1c[nH]c2ncc(-c3ccc(O)cc3)cc12"
tgt = "Dual specificity tyrosine-phosphorylation-regulated kinase 1B (Homo sapiens)"
value_kind = "pIC50"
censor_symbol = "<"
reading = 6.00

